Listed compounds paired with reported EC50
tested on: JAK1-dependent STAT6 phosphorylation downstream of IL-13 stimulation in TF-1 human erythroleukemia cells; assay: JAK1 pathway assay in TF-1 cells (IL-13-pSTAT6, MSD); type: cell-based; details: Homo sapiens, TF-1, TF-1 cells, read-out: IL13-pSTAT6 EC50_TF-1
Could you give the number and then its unit, please?

Reference set, count: 5
compound: O=C(Nc1cn(CC(=O)N2CCCCC2)nc1-c1cc(Cl)ccc1OC(F)F)c1cnn2cccnc12
reported.measurement: 1.5 nM

compound: O=C(Nc1sc(N2CCN(CC(F)(F)F)CC2)nc1-c1cc(Cl)ccc1OC(F)F)c1cnn2cccnc12
reported.measurement: 33.5 nM

compound: O=C(Nc1cn(CC(=O)N2C[C@H]3CN(CC4CCN(C(=O)C5CCOCC5)CC4)C[C@H]3C2)nc1-c1cc(Cl)ccc1OC(F)F)c1cnn2cccnc12
reported.measurement: 235 nM

compound: CN(C)CC1(O)CCN(C(=O)Cn2cc(NC(=O)c3cnn4cccnc34)c(-c3cc(Cl)ccc3OC(F)F)n2)CC1
reported.measurement: 38.5 nM

compound: Nc1nn2cccnc2c1C(=O)Nc1cn(CC(=O)N2CCC(CO)CC2)nc1-c1cc(Cl)ccc1OC(F)F
reported.measurement: 5.9 nM

In: What measured EC50 goes with O=C(Nc1cn(CC(=O)N2C[C@H]3CN(CC4CCC(F)(F)CC4)C[C@H]3C2)nc1-c1cc(Cl)ccc1OC(F)F)c1cnn2cccnc12 ?
Out: 6.2 nM

In: Again, but for CN(C)C(=O)CCCN1CCC(n2cc(NC(=O)c3c(N)nn4cccnc34)c(-c3cc(Cl)ccc3OC(F)F)n2)CC1
Out: 9.4 nM

In: // repeat for CN1C[C@@H]2CN(C(=O)Cn3cc(NC(=O)c4cnn5cccnc45)c(-c4cc(Cl)ccc4OC(F)F)n3)C[C@]2(c2ccccc2)C1 and report
Out: 8.1 nM

In: // next record CC(C)CN1CCC2(CCN(C(=O)Cn3cc(NC(=O)c4cnn5cccnc45)c(-c4cc(Cl)ccc4OC(F)F)n3)CC2)C1
Out: 5 nM

In: Then O=C(Nc1cn(CC(=O)N2CCC(NC(c3ccccc3)C(F)(F)F)CC2)nc1-c1cc(Cl)ccc1OC(F)F)c1cnn2cccnc12 (stereo not shown) ?
Out: 3.1 nM

In: Now this one: O=C(Nc1cn(CC(=O)N2C[C@H]3CN(CCc4ccccc4)C[C@H]3C2)nc1-c1cc(Cl)ccc1OC(F)F)c1cnn2cccnc12
Out: 22 nM

In: Ok, now Nc1nn2cccnc2c1C(=O)Nc1cn(C2CCN(CCCCOCCc3ccccc3)CC2)nc1-c1cc(Cl)ccc1OC(F)F
Out: 95.6 nM

In: Next record, please: COCCN(C)C1CCN(C(=O)Cn2cc(NC(=O)c3c(N)nn4cccnc34)c(-c3cc(Cl)ccc3OC(F)F)n2)CC1
Out: 15 nM

---

tested on: JAK1-dependent STAT6 phosphorylation downstream of IL-13 stimulation in TF-1 human erythroleukemia cells; assay: JAK1 pathway assay in TF-1 cells (IL-13-pSTAT6, MSD); format: cell-based; conditions: Homo sapiens, TF-1, TF-1 cells, read-out: IL13-pSTAT6 EC50_TF-1
EC50 overview
Your answer should be a plain number; it is taken to be in nM.

Examples with their reported EC50 follow.
smiles.entry: CN(CC1(C)COC1)C1CCN(C(=O)Cn2cc(NC(=O)c3cnn4cccnc34)c(-c3cc(Cl)ccc3OC(F)F)n2)CC1
value.type: EC50
reported.measurement: 4.1
//
smiles.entry: CN(C)CC1CCN(c2nc(-c3cc(Cl)ccc3OC(F)F)c(NC(=O)c3cnn4cccnc34)s2)CC1
value.type: EC50
reported.measurement: 14.6
//
smiles.entry: C[N+](C)(CCCc1ccccc1)C1CCN(C(=O)Cn2cc(NC(=O)c3cnn4cccnc34)c(-c3cc(Cl)ccc3OC(F)F)n2)CC1
value.type: EC50
reported.measurement: 87.9
//
smiles.entry: Nc1nn2cccnc2c1C(=O)Nc1cn(C2CCN(CCCC(=O)N3CCOCC3)CC2)nc1-c1cc(Cl)ccc1OC(F)F
value.type: EC50
reported.measurement: 11.8
//
smiles.entry: CN1C[C@@H]2[C@H](C1)[C@H](CO)N(C(=O)Cn1cc(NC(=O)c3cnn4cccnc34)c(-c3cc(Cl)ccc3OC(F)F)n1)[C@@H]2c1ccccc1
value.type: EC50
reported.measurement: 11.8

In: Query: EC50; subject: O=C(Nc1cn(CC(=O)N2CC[C@@H]3CNCC[C@@H]32)nc1-c1cc(Cl)ccc1OC(F)F)c1cnn2cccnc12
Out: 344
